The values you see were collected from ChEMBL document CHEMBL3616445.

Square brackets hold non-standard residues; d marks the D form. Side chains are listed from the residue outwards. Peptide text beside a SMILES is read from it. Oic = O=C(O)[C@@H]1C[C@@H]2CCCC[C@@H]2N1; Hyp = O=C(O)[C@@H]1C[C@@H](O)CN1; dTic = O=C(O)[C@H]1Cc2ccccc2CN1; 2Thi = N[C@@H](Cc1cccs1)C(=O)O; Dap = NC[C@H](N)C(=O)O
Task for the reader: assign each of the following compounds its reported IC50.
Please reply with the bare figure in nM and do not write the unit itself.

Form entry - test system: Mu-type opioid receptor (Rattus norvegicus, UniProt P33535); read-out: IC50; compound: C[C@@H](NC(=O)[C@@H](N)Cc1ccc(O)cc1)C(=O)NCC(=O)N[C@@H](Cc1ccccc1)C(=O)NC[C@H](NC(=O)[C@@H]1CCCN1C(=O)[C@H](CCCNC(=N)N)NC(=O)[C@H](N)CCCNC(=N)N)C(=O)NCC(=O)N[C@@H](Cc1cccs1)C(=O)N[C@@H](CO)C(=O)N1Cc2ccccc2C[C@@H]1C(=O)N1[C@H](C(=O)N[C@@H](CCCNC(=N)N)C(=O)O)C[C@@H]2CCCC[C@@H]21
Sequence (P33535 whole entry): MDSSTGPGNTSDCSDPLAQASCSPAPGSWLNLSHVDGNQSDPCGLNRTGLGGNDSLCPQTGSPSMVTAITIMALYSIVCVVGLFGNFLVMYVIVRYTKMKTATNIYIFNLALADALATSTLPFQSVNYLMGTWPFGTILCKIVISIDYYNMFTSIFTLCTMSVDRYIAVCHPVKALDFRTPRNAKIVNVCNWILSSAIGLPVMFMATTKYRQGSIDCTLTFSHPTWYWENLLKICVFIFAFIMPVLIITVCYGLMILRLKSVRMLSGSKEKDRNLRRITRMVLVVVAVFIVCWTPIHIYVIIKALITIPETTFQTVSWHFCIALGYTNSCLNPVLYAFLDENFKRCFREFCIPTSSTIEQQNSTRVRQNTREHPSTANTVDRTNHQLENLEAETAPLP
4.79

Form entry - test system: Mu-type opioid receptor (Rattus norvegicus, UniProt P33535); read-out: IC50; compound: C[C@@H](NC(=O)[C@@H](N)Cc1ccc(O)cc1)C(=O)NCC(=O)N[C@@H](Cc1ccccc1)C(=O)NCCC(=O)N[C@H](CCCNC(=N)N)C(=O)N[C@@H](CCCNC(=N)N)C(=O)N1CCC[C@H]1C(=O)N1C[C@H](O)C[C@H]1C(=O)NCC(=O)N[C@@H](Cc1cccs1)C(=O)N[C@@H](CO)C(=O)N1Cc2ccccc2C[C@@H]1C(=O)N1[C@H](C(=O)N[C@@H](CCCNC(=N)N)C(=O)O)C[C@@H]2CCCC[C@@H]21
3.09

Form entry - test system: Mu-type opioid receptor (Rattus norvegicus, UniProt P33535); read-out: IC50; compound: C[C@@H](NC(=O)[C@@H](N)Cc1ccc(O)cc1)C(=O)NCC(=O)N[C@@H](Cc1ccccc1)C(=O)NC[C@H](NC(=O)[C@H](Cc1cccs1)NC(=O)CNC(=O)[C@@H]1C[C@@H](O)CN1C(=O)[C@@H]1CCCN1C(=O)[C@H](CCCNC(=N)N)NC(=O)[C@H](N)CCCNC(=N)N)C(=O)N1Cc2ccccc2C[C@@H]1C(=O)N1[C@H](C(=O)N[C@@H](CCCNC(=N)N)C(=O)O)C[C@@H]2CCCC[C@@H]21 (H-[dR]RP[Hyp]G[2Thi][Dap]([Phe-Gly-dA-Tyr])[dTic][Oic]R-OH)
15.5

---

- target.entity: Delta-type opioid receptor (Homo sapiens, UniProt P41143)
- Sequence (P41143 whole entry): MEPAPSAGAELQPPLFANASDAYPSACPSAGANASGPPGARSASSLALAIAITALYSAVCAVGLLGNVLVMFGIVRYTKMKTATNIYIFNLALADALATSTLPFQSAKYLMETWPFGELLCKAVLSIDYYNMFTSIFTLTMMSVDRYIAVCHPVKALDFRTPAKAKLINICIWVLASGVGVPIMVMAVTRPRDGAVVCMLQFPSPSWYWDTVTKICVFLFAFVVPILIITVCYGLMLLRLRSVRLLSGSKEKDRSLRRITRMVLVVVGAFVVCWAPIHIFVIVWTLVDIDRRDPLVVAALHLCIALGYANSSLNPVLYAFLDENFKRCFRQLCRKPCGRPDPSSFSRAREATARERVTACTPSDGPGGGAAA
- assay.method.text: Displacement of [3H]DPDPE from human delta opiod receptor
observation.type: Ki (µM)
Please reply with the bare figure in µM and do not write the unit itself.

What value of Ki has been reported for the following compound? CSCC[C@H](NC(=O)[C@H](Cc1ccccc1)NC(=O)[C@@H](C)NC(=O)[C@@H](N)Cc1ccc(O)cc1)C(=O)N[C@H](CCCNC(=N)N)C(=O)N[C@@H](CCCNC(=N)N)C(=O)N1CCC[C@H]1C(=O)N1C[C@H](O)C[C@H]1C(=O)NCC(=O)N[C@@H](Cc1cccs1)C(=O)N[C@@H](CO)C(=O)N1Cc2ccccc2C[C@@H]1C(=O)N1[C@H](C(=O)N[C@@H](CCCNC(=N)N)C(=O)O)C[C@@H]2CCCC[C@@H]21
6.9

What value of Ki has been reported for the following compound? C[C@@H](NC(=O)[C@@H](N)Cc1ccc(O)cc1)C(=O)NCC(=O)N[C@@H](Cc1ccccc1)C(=O)NC[C@H](N)C(=O)NCCC(=O)N[C@H](CCCNC(=N)N)C(=O)N[C@@H](CCCNC(=N)N)C(=O)N1CCC[C@H]1C(=O)N1C[C@H](O)C[C@H]1C(=O)NCC(=O)N[C@@H](Cc1cccs1)C(=O)N[C@@H](CO)C(=O)N1Cc2ccccc2C[C@@H]1C(=O)N1[C@H](C(=O)N[C@@H](CCCNC(=N)N)C(=O)O)C[C@@H]2CCCC[C@@H]21
0.007

---

Task for the reader: assign each of the following compounds its reported pIC50.
- target.entity: Mu-type opioid receptor (Rattus norvegicus)
# pIC50: negative log10 of molar concentration; output just the value

What value of pIC50 has been reported for the following compound? CSCC[C@H](NC(=O)[C@H](Cc1ccccc1)NC(=O)[C@@H](C)NC(=O)[C@@H](N)Cc1ccc(O)cc1)C(=O)N[C@H](CCCNC(=N)N)C(=O)N[C@@H](CCCNC(=N)N)C(=O)N1CCC[C@H]1C(=O)N1C[C@H](O)C[C@H]1C(=O)NCC(=O)N[C@@H](Cc1cccs1)C(=O)N[C@@H](CO)C(=O)N1Cc2ccccc2C[C@@H]1C(=O)N1[C@H](C(=O)N[C@@H](CCCNC(=N)N)C(=O)O)C[C@@H]2CCCC[C@@H]21
6.81

What value of pIC50 has been reported for the following compound? C[C@@H](NC(=O)[C@@H](N)Cc1ccc(O)cc1)C(=O)NCC(=O)N[C@@H](Cc1ccccc1)C(=O)NC[C@H](N)C(=O)N[C@H](CCCNC(=N)N)C(=O)N[C@@H](CCCNC(=N)N)C(=O)N1CCC[C@H]1C(=O)N1C[C@H](O)C[C@H]1C(=O)NCC(=O)N[C@@H](Cc1cccs1)C(=O)N[C@@H](CO)C(=O)N1Cc2ccccc2C[C@@H]1C(=O)N1[C@H](C(=O)N[C@@H](CCCNC(=N)N)C(=O)O)C[C@@H]2CCCC[C@@H]21
8.85

What value of pIC50 has been reported for the following compound? C[C@@H](NC(=O)[C@@H](N)Cc1ccc(O)cc1)C(=O)NCC(=O)N[C@@H](Cc1ccccc1)C(=O)NCCCCCCCC(=O)N[C@H](CCCNC(=N)N)C(=O)N[C@@H](CCCNC(=N)N)C(=O)N1CCC[C@H]1C(=O)N1C[C@H](O)C[C@H]1C(=O)NCC(=O)N[C@@H](Cc1cccs1)C(=O)N[C@@H](CO)C(=O)N1Cc2ccccc2C[C@@H]1C(=O)N1[C@H](C(=O)N[C@@H](CCCNC(=N)N)C(=O)O)C[C@@H]2CCCC[C@@H]21
8.91

What value of pIC50 has been reported for the following compound? C[C@@H](NC(=O)[C@@H](N)Cc1ccc(O)cc1)C(=O)NCC(=O)N[C@@H](Cc1ccccc1)C(=O)N[C@H](CCCNC(=N)N)C(=O)N[C@@H](CCCNC(=N)N)C(=O)N1CCC[C@H]1C(=O)N1C[C@H](O)C[C@H]1C(=O)NCC(=O)N[C@@H](Cc1cccs1)C(=O)N[C@@H](CO)C(=O)N1Cc2ccccc2C[C@@H]1C(=O)N1[C@H](C(=O)N[C@@H](CCCNC(=N)N)C(=O)O)C[C@@H]2CCCC[C@@H]21
7.64

What value of pIC50 has been reported for the following compound? C[C@@H](NC(=O)[C@@H](N)Cc1ccc(O)cc1)C(=O)NCC(=O)N[C@@H](Cc1ccccc1)C(=O)NCCCCCCCC(=O)NC[C@H](N)C(=O)N[C@H](CCCNC(=N)N)C(=O)N[C@@H](CCCNC(=N)N)C(=O)N1CCC[C@H]1C(=O)N1C[C@H](O)C[C@H]1C(=O)NCC(=O)N[C@@H](Cc1cccs1)C(=O)N[C@@H](CO)C(=O)N1Cc2ccccc2C[C@@H]1C(=O)N1[C@H](C(=O)N[C@@H](CCCNC(=N)N)C(=O)O)C[C@@H]2CCCC[C@@H]21
9.09

---

Task for the reader: assign each of the following compounds its reported pKi.
# pKi: negative log10 of molar concentration; output just the value

Form entry - test system: Mu-type opioid receptor (Rattus norvegicus, UniProt P33535); read-out: pKi; compound: C[C@@H](NC(=O)[C@@H](N)Cc1ccc(O)cc1)C(=O)NCC(=O)N[C@@H](Cc1ccccc1)C(=O)NC[C@H](N)C(=O)N[C@H](CCCNC(=N)N)C(=O)N[C@@H](CCCNC(=N)N)C(=O)N1CCC[C@H]1C(=O)N1C[C@H](O)C[C@H]1C(=O)NCC(=O)N[C@@H](Cc1cccs1)C(=O)N[C@@H](CO)C(=O)N1Cc2ccccc2C[C@@H]1C(=O)N1[C@H](C(=O)N[C@@H](CCCNC(=N)N)C(=O)O)C[C@@H]2CCCC[C@@H]21
9.22

Form entry - test system: Mu-type opioid receptor (Rattus norvegicus, UniProt P33535); read-out: pKi; compound: N=C(N)NCCC[C@H](NC(=O)[C@@H]1C[C@@H]2CCCC[C@@H]2N1C(=O)[C@H]1Cc2ccccc2CN1C(=O)[C@H](CO)NC(=O)[C@H](Cc1cccs1)NC(=O)CNC(=O)[C@@H]1C[C@@H](O)CN1C(=O)[C@@H]1CCCN1C(=O)[C@H](CCCNC(=N)N)NC(=O)[C@@H](CCCNC(=N)N)NC(=O)[C@H](Cc1ccccc1)NC(=O)[C@@H]1CCCN1C(=O)[C@@H](N)Cc1ccc(O)cc1)C(=O)O
5.64
